Origin of values: PubChem BioAssay AID1745844

Tested on: rodent lifetime carcinogenesis bioassay, tumor incidence TD50
test.protocol: carcinogenic potency in animals, long-term in vivo studies, CPDB compilation (AID 1745844)
applied.conditions: rat; strain Fischer 344; males; by gavage; site: forestomach; lesion: carcinoma; dosed 30 weeks; study length 112 weeks
readout.name: TD50

TD50 for CCCCCCCCCCCCN(C)N=O is 5.07 mg/kg/day

###

Test system: rodent lifetime carcinogenesis bioassay, tumor incidence TD50
test.protocol: carcinogenic potency in animals, long-term in vivo studies, CPDB compilation (AID 1745844)
applied.conditions: mouse; strain Charles River CD1; females; in feed; site: liver; lesion: hepatocellular adenoma; dosed 104 weeks; study length 104 weeks
The source made the active and inactive calls. No rule for the calls is given here.
Bench note: report the call from 1 for active, 0 for inactive

INSERT INTO assay_data (compound, discrete_label) VALUES
  ('OC(Cn1cncn1)(Cn1cncn1)c1ccc(F)cc1F', 0),
  ('O=C(O)CCCC/C=C(\c1ccccc1)c1cccnc1', 0),
  ('O=C(O)C1=NN(c2ccc(S(=O)(=O)O)cc2)C(=O)C1N=Nc1ccc(S(=O)(=O)O)cc1 (centres undefined)', 0);

# input Lab log entry: O=C(O)c1cc(Oc2ccc(C(F)(F)F)cc2Cl)ccc1[N+](=O)[O-] — outcome as called in the assay?
# output 1
